Measured Diameter of inhibition zone by item
System: Staphylococcus aureus
protocol_text: Antibacterial activity Staphylococcus aureus ATCC 25923 after 24 hrs at 30 degC by agar diffusion technique
Type: functional
A bare number is not enough; add the unit after it.

Some entries whose results are on file:
cpd_smiles=Cc1ccc(C(=O)C[n+]2ccccn2)cc1.[Br-] recorded_endpoint="Diameter of inhibition zone" reading="47 mm"
cpd_smiles=COC(=O)c1c(C(=O)OC)c2cccnn2c1C(=O)c1ccc(Cl)cc1 recorded_endpoint="Diameter of inhibition zone" reading="30 mm"
cpd_smiles=COC(=O)[C@H]1[C@H](C(=O)OC)[C@H](C(=O)c2ccc(Cl)cc2)N2N=CC=C[C@@H]12 recorded_endpoint="Diameter of inhibition zone" reading="23 mm"
cpd_smiles=COC(=O)[C@@H]1[C@H](C(=O)OC)[C@H](C(=O)c2ccc(Cl)cc2)N2N=CC=C[C@@H]12 recorded_endpoint="Diameter of inhibition zone" reading="33 mm"

I have this compound here, "N#C[C@H]1C[C@@H](C(=O)c2ccc(Cl)cc2)N2N=CC=C[C@@H]12" , and I need its recorded Diameter of inhibition zone.
30 mm

Please report the recorded Diameter of inhibition zone for "COC(=O)[C@H]1[C@H](C(=O)OC)[C@H](C(=O)c2ccc(C)cc2)N2N=CC=C[C@@H]12" .
47 mm

Just for reference, ChEMBL document CHEMBL1153370 is where these values come from.
